normalized growth reference
# run-description: chemical genetic growth profiling, strain panel (AID 1159580);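 note: tested at 20 µM; growth read once vehicle control cultures reached saturation at 30 °C; 1 = growth at the plate median or of vehicle wells; lower values mean less growth of the strain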
# condition-label: S. cerevisiae deletion strains, growth OD, locus YDL134C, strain PPH21, active compounds read low
Hit rate of the full screen: of about 5,500 compounds, about 2,000 (36%) were called active. Inconclusive results (about 18%) are left out. Some of the results follow.
Could you respond with only the numeric value?

Would you please look over these solved cases?
Request the reported normalized growth associated with COc1cc2c(cc1OC)C(=O)OC2
0.999

Request the reported normalized growth associated with CCOC(=O)CSC(=S)NCc1ccc(C)cc1
0.0516

Request the reported normalized growth associated with COc1ccc2cc([C@H](C)CO)ccc2c1
0.98

Request the reported normalized growth associated with CC(C(=O)O)c1cccc(C(=O)c2ccccc2)c1 (stereo not drawn)
0.994

Request the reported normalized growth associated with CC1(C)OC(=O)NC1=O
1.02

New cases:
Request the reported normalized growth associated with CO[C@H]1[C@H](O)[C@H](O[C@H]2CC[C@]3(C)C4CC[C@]5(C)C(C6=CC(=O)OC6)CC[C@]5(O)C4CC[C@@H]3C2)O[C@@H](C)[C@@H]1O (stereo partly drawn)
1

Request the reported normalized growth associated with COc1ccc2c3c1O[C@H]1C[C@@H](O)C=C[C@@]31CCN(C)C2
1.01

Request the reported normalized growth associated with CC(C(=O)O)c1cccc(Oc2ccccc2)c1 (stereo not drawn)
0.976

Request the reported normalized growth associated with ClC1=C(Cl)C2(Cl)C3C4C=CC(C4)C3C1(Cl)C2(Cl)Cl (stereo not drawn)
0.992

Request the reported normalized growth associated with CN1CCCN=C1COC(=O)C(O)(c1ccccc1)C1CCCCC1 (stereo not drawn)
1.02

Request the reported normalized growth associated with COc1ccc2cc([C@H](C)C(=O)O)ccc2c1
1

Request the reported normalized growth associated with CN(C)CC/C=C1\c2ccccc2Sc2ccc(Cl)cc21
0.882

Request the reported normalized growth associated with S=c1nc[nH]c2nc[nH]c12
1.01

* * *

# run-description: chemical genetic growth profiling, strain panel (AID 1159580)
# condition-label: S. cerevisiae deletion strains, growth OD, locus YGL253W, strain hxk2, active compounds read low
In all, about 5,500 compounds went through this assay and about 2,000 (36%) were called active. Roughly 18% stayed inconclusive and do not appear here. The list shows a part of the results.
assay-readout: normalized growth
Could you respond with only the numeric value?

Request the reported normalized growth associated with COc1cc2c(cc1OC)[C@@H]1C(=O)c3ccc(OC)c(CC=C(C)C)c3O[C@@H]1CO2
1.04

Request the reported normalized growth associated with CCOC(=O)C(Cc1ccc(O)cc1)NC(C)=O (stereo unspecified)
1

Request the reported normalized growth associated with O=C(O)C1(O)C[C@@H](O)C(O)[C@H](O)C1 (stereo partly specified)
0.989

New cases:
Request the reported normalized growth associated with COc1cc2c(cc1OC)[C@@H]1C(=O)c3ccc4c(c3O[C@@H]1CO2)C=CC(C)(C)O4
0.996

Request the reported normalized growth associated with NCC1CCC(C(=O)O)CC1 (stereo unspecified)
0.977

Request the reported normalized growth associated with ClC1=C(Cl)C2(Cl)C3C4C=CC(C4)C3C1(Cl)C2(Cl)Cl (stereo unspecified)
0.983

Request the reported normalized growth associated with CC1(C)OC(=O)NC1=O
1.01

Request the reported normalized growth associated with ClC1=C(Cl)C2(Cl)C3C(Cl)C=CC3C1(Cl)C2(Cl)Cl (stereo unspecified)
0.999

Request the reported normalized growth associated with CC1=C(/C=C/C(C)=C/C=C/C(C)=C/C=C/C=C(C)/C=C/C=C(C)/C=C/C(=O)[C@]2(C)C[C@@H](O)CC2(C)C)C(C)(C)C[C@H](O)C1
1.03

Request the reported normalized growth associated with c1ccc(N=Nc2ccccc2)cc1
0.996

Request the reported normalized growth associated with CC1=C(C/C=C(\C)CCC[C@H](C)CCC[C@H](C)CCCC(C)C)C(=O)c2ccccc2C1=O
1

* * *

# run-description: chemical genetic growth profiling, strain panel (AID 1159580)
# condition-label: S. cerevisiae deletion strains, growth OD, locus YOR290C, strain snf2
Among all 5,500 compounds or so, about 2,000 (36%) were called active. Not shown: some 18% with an inconclusive outcome. Cut-off read from the data, not from the text of the source: active = normalized growth mostly below about 0.91 (no sharp cut-off); inconclusive = no clear call, values can overlap the other calls; inactive = mostly above about 0.92. Some of the results follow.
Select the correct class. Options are YES (active), NO (inactive) and nothing else.

Example entries begin here.
Look up the recorded call for COc1cc(O)c(C(=O)/C=C/c2ccccc2)c(OC)c1 in this test.
YES

Look up the recorded call for CCCCCCCCCCCCCCCC(=O)OC/C=C(C)/C=C/C=C(C)/C=C/C1=C(C)CCCC1(C)C in this test.
NO

New cases:
Look up the recorded call for COc1cc(O)c(C(=O)/C=C/c2ccc(O)c(OC)c2)c(OC)c1 in this test.
NO

Look up the recorded call for CC1CC2C3CC(F)C4=CC(=O)C=CC4(C)C3(F)C(O)CC2(C)C1(O)C(=O)CO (stereo unspecified) in this test.
NO

Look up the recorded call for O=C(O)C1(O)C[C@@H](O)C(O)[C@H](O)C1 (stereo partly specified) in this test.
NO

Look up the recorded call for CCN(CC)CCCC(C)Nc1ccnc2cc(Cl)ccc12 (stereo unspecified) in this test.
NO

Look up the recorded call for COP(=O)(OC)OC=C(Cl)Cl in this test.
NO

Look up the recorded call for OCCN1C[C@@H](O)[C@@H](O)C(O)C1CO (stereo partly specified) in this test.
NO

Look up the recorded call for CN1CCC(=C2c3ccccc3CCc3sccc32)CC1 in this test.
NO

Look up the recorded call for CC(N)CCCC(C)(C)O (stereo unspecified) in this test.
NO

Look up the recorded call for O=C(O)c1c2ccccc2cc2ccccc12 in this test.
NO

Look up the recorded call for CC(C(=O)O)c1cccc(C(=O)c2ccccc2)c1 (stereo unspecified) in this test.
NO

Look up the recorded call for c1ccc(N=Nc2ccccc2)cc1 in this test.
NO

Look up the recorded call for CC(=O)OCC[N+](C)(C)C in this test.
NO

Look up the recorded call for O=C(O)c1cc2ccccc2c(Cc2c(O)c(C(=O)O)cc3ccccc23)c1O in this test.
NO

Look up the recorded call for COc1cc(/C=C/C(=O)/C=C(O)/C=C/c2ccc(O)c(OC)c2)ccc1O in this test.
YES

Look up the recorded call for CN(C)c1ccc(C(=C2C=CC(=[N+](C)C)C=C2)c2ccc(N(C)C)cc2)cc1 in this test.
YES

Look up the recorded call for CCN(CC)CCCC(C)Nc1c2ccc(Cl)cc2nc2ccc(OC)cc12 (stereo unspecified) in this test.
YES

Look up the recorded call for C[C@]12CCC(=O)C=C1CCC1C2CC[C@@]2(C)C1CC[C@@H]2O (stereo partly specified) in this test.
NO

Look up the recorded call for COc1ccc2c(c1)O[C@@H]1COc3cc(OC)c(OC)cc3[C@@H]1C2=O in this test.
YES

* * *

# run-description: chemical genetic growth profiling, strain panel (AID 1159580);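 note: tested at 20 µM; growth read once vehicle control cultures reached saturation at 30 °C; 1 = growth at the plate median or of vehicle wells; lower values mean less growth of the strain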
# condition-label: S. cerevisiae deletion strains, growth OD, locus YHR079C, strain IRE1, active compounds read low
Out of some 5,500 compounds screened, about 2,000 (36%) were called active. Inconclusive results (about 18%) are left out. The list shows a part of the results.
assay-readout: normalized growth
Could you respond with only the numeric value?

Request the reported normalized growth associated with S=c1nc[nH]c2nc[nH]c12
1

Now examine the next entry.
Request the reported normalized growth associated with CCCCNc1cc(C(=O)O)cc(S(N)(=O)=O)c1Oc1ccccc1
1.07

* * *

# run-description: chemical genetic growth profiling, strain panel (AID 1159580);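 note: tested at 20 µM; growth read once vehicle control cultures reached saturation at 30 °C; 1 = growth at the plate median or of vehicle wells; lower values mean less growth of the strain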
# condition-label: S. cerevisiae deletion strains, growth OD, locus YPL241C, strain CIN2, active compounds read low
Screen size: about 5,500 compounds; about 2,000 (36%) were called active. Another 18% or so got no clear call; they are omitted. The list shows a part of the results.
assay-readout: normalized growth
Could you respond with only the numeric value?

Would you please look over these solved cases?
Request the reported normalized growth associated with CC(CCc1ccc(O)cc1)NCCc1ccc(O)c(O)c1 (stereo unspecified)
0.927

Request the reported normalized growth associated with CC(CCc1ccccc1)NC(C)C(O)c1ccc(O)cc1 (stereo unspecified)
0.997

Request the reported normalized growth associated with CCCCNc1cc(C(=O)O)cc(S(N)(=O)=O)c1Oc1ccccc1
0.985

Now examine the next entry.
Request the reported normalized growth associated with COc1ccc(C2=C(C(C)=O)C(C)=NC(=S)C2C#N)cc1 (stereo unspecified)
0.943

* * *

# run-description: chemical genetic growth profiling, strain panel (AID 1159580);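 note: tested at 20 µM; growth read once vehicle control cultures reached saturation at 30 °C; 1 = growth at the plate median or of vehicle wells; lower values mean less growth of the strain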
# condition-label: S. cerevisiae deletion strains, growth OD, locus YGL227W, strain vid30, active compounds read low
Out of some 5,500 compounds screened, about 2,000 (36%) were called active. Another 18% or so got no clear call; they are omitted. This is one part of the list.
assay-readout: normalized growth

Would you please look over these solved cases?
Request the reported normalized growth associated with CC(C)OC(=O)C(C)(C)Oc1ccc(C(=O)c2ccc(Cl)cc2)cc1
0.967 (inactive)

Request the reported normalized growth associated with CCCCCCNC(=O)n1cc(F)c(=O)[nH]c1=O
0.99 (inactive)

Request the reported normalized growth associated with O=C1C=CC(=C(c2ccc(O)cc2)c2ccc(O)cc2)C=C1
0.971 (inactive)

Request the reported normalized growth associated with CCCCCCCCCCCCCCCC[N+](C)(C)C
0.0598 (active)

Request the reported normalized growth associated with CC(N)C(=O)OC(C)(C)Cc1ccc(Cl)cc1 (stereo unspecified)
1.01 (inactive)

New cases:
Request the reported normalized growth associated with NCCSSCCN
0.99 (inactive)

Request the reported normalized growth associated with S=c1nc[nH]c2nc[nH]c12
0.975 (inactive)

Request the reported normalized growth associated with CS(=O)(=O)c1ccc(C2=C(c3ccccc3)C(=O)OC2)cc1
0.969 (inactive)

Request the reported normalized growth associated with CC(C)(O)[C@@H]1[C@H]2OC(=O)[C@@H]1[C@]1(O)C[C@H]3O[C@]34C(=O)O[C@H]2[C@]14C
0.993 (inactive)

Request the reported normalized growth associated with CC(=O)O[C@@H]1C[C@@]2(C)C(CC[C@@H]2C(C)=O)C2CCC3=CC(=O)CC[C@]3(C)C21 (stereo partly specified)
1.01 (inactive)

Request the reported normalized growth associated with ClC1=C(Cl)C2(Cl)C3C4C=CC(C4)C3C1(Cl)C2(Cl)Cl (stereo unspecified)
0.996 (inactive)

// data source = PubChem BioAssay AID1159580
